Would you mind telling me the reported IC50 of each entry?
Biological target: b-Raf (V600E) (Homo sapiens (Human), UniProt P15056, V600E)
Sequence (P15056 whole entry V600E): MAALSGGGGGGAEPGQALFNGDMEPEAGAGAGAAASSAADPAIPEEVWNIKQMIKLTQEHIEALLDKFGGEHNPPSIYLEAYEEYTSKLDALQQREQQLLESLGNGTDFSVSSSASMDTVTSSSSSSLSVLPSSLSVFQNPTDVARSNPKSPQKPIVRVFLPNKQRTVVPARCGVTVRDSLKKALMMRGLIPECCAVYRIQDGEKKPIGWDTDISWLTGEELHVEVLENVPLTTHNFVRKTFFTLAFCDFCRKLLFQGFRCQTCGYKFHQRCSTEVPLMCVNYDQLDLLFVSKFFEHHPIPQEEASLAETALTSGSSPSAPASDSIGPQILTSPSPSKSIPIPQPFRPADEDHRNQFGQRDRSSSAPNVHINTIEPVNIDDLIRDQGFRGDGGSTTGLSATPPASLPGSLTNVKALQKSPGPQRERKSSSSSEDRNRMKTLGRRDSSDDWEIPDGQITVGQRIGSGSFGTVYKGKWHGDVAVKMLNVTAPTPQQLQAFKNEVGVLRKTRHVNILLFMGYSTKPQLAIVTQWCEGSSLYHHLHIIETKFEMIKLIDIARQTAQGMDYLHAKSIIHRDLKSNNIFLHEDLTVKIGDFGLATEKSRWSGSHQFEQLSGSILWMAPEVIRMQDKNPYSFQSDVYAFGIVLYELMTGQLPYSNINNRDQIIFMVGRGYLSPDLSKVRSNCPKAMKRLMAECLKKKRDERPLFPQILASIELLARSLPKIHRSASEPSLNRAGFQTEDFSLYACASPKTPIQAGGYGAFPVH
Assay: In vitro Raf activity determination (Alpha Screen, phospho-MEK), b-Raf (V600E)
Conditions: ATP 10 μM, 60 min pre-incubation, 3 hours reaction

q: Name the recorded IC50 for COc1ncc(-c2cc(NC(=O)c3ccnc(C(F)(F)F)c3)ccc2C)cc1C1(O)COC1 .
a: 2.84 nM

q: Note, next up: COc1ncc(-c2cc(NC(=O)c3cccc(C(F)(F)F)c3)cnc2C)cc1C1(CF)COC1
a: 0.469 nM

q: Note, next up: CCOc1nnc(-c2cc(NC(=O)c3cc(CN(C)C)cc(C(F)(F)F)c3)cnc2C)cc1C1(C)COC1
a: 23.4 nM

q: Note, next up: Cc1ncc(NC(=O)c2ccnc(C(C)(F)F)c2)cc1-c1cnc(OCCO)c(C2(F)COC2)c1
a: 5.9 nM

q: Note, next up: COc1ncc(-c2cc(NC(=O)c3cc(C(C)(F)F)ccn3)cnc2C)cc1C1(F)COC1
a: 3.61 nM

q: Note, next up: COc1ncc(-c2cc(NC(=O)c3cc(C(C)(C)O)ccn3)ccc2C)cc1C1(F)COC1
a: 4.17 nM

q: Note, next up: COc1ncc(-c2cc(NC(=O)c3ccnc(C(F)(F)F)c3)cnc2C)cc1C1(O)COC1
a: 76.6 nM

q: Note, next up: COc1ncc(-c2cc(NC(=O)c3ccnc(C(C)(F)F)c3)ccc2C)cc1C1(CF)COC1
a: 0.293 nM

q: Note, next up: COc1ncc(-c2cc(NC(=O)c3ccnc(C(C)(F)F)c3)ccc2C)cc1C1(O)COC1
a: 2.07 nM

q: Note, next up: COc1ncc(-c2cc(NC(=O)c3ccnc(C(F)(F)F)c3)cnc2C)cc1C1(C#N)COC1
a: 7.01 nM

q: Note, next up: COc1ncc(-c2cc(NC(=O)c3cc(C(C)(C)N)cc(C(F)(F)F)c3)ccc2C)cc1C1(CF)COC1
a: 1.8 nM

q: Note, next up: COc1cc(-c2cc(NC(=O)c3cccc(C(F)(F)F)c3)cnc2C)cc(C2COC2)c1
a: 6.88 nM

q: Note, next up: Cc1ccc(NC(=O)c2cccc(C(F)(F)F)c2)cc1-c1cccc(C2(C)COC2)c1
a: 0.87 nM

q: Note, next up: CCOc1ncc(-c2cc(NC(=O)c3ccnc(C(C)(C)C#N)c3)cnc2C)cc1C1(C)COC1
a: 7.12 nM

q: Note, next up: Cc1ncc(NC(=O)c2cccc(C(F)(F)F)c2)cc1-c1cnc(OCCO)c(C2(F)COC2)c1
a: 1.85 nM

q: Note, next up: CCOc1ncc(-c2cc(NC(=O)c3ccnc(C(C)(C)C#N)c3)ccc2C)cc1C1(CF)COC1
a: 0.446 nM

###

Would you mind telling me the reported pIC50 of each entry?
Target: C-Raf FL (Homo sapiens (Human), UniProt P04049, Y340E/Y341E)
Sequence (P04049 whole entry Y340E/Y341E): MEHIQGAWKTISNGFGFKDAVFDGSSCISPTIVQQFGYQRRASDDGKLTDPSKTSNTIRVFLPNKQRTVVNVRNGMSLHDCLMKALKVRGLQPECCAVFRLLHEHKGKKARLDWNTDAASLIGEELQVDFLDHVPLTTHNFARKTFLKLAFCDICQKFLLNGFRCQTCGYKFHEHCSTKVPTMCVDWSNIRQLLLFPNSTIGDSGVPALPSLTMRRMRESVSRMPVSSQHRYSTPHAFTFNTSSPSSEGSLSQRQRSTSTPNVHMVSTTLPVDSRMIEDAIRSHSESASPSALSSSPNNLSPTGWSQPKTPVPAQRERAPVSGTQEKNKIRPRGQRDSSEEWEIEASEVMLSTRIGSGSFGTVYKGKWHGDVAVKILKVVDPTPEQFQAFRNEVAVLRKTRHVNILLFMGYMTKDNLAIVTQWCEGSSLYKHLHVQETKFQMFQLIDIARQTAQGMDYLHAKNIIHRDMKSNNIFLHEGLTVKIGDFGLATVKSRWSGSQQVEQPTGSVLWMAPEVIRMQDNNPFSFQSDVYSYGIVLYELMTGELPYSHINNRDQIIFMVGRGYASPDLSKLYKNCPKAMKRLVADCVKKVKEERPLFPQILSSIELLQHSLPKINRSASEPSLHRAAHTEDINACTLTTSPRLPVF
Sequence (P63104 whole entry partner): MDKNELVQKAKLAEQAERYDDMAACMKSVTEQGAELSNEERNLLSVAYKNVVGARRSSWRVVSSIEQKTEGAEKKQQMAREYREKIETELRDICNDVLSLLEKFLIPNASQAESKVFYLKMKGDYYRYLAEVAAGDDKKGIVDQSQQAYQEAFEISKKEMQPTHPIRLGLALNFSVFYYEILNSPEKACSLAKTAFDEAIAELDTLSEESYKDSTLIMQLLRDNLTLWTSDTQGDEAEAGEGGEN
Assay: In vitro Raf activity determination (Alpha Screen, phospho-MEK), C-Raf FL (full length, Y340E/Y341E)
Conditions: ATP 1 μM; 60 min pre-incubation; 1 hour reaction; column head does not say FL or TR
Just the number, please; pIC50 means minus log10 of the concentration in mol/L.

q: Name the recorded pIC50 for Cc1ccc(NC(=O)c2cc(Cl)ccn2)cc1-c1cc(OC[C@H](O)CO)nc(C2CCOCC2)c1 .
a: 10.30

q: Note, next up: Cc1ncc(NC(=O)c2cccc(C(F)(F)F)c2)cc1-c1cc(C2(C)COC2)c(OCCO)nn1
a: 9.40

q: Note, next up: COc1ncc(-c2cc(NC(=O)c3cccc(C(F)(F)F)c3)cnc2C)cc1C1(O)COC1
a: 8.85

q: Note, next up: COC1(c2cc(-c3cc(NC(=O)c4ccnc(C(F)(F)F)c4)ccc3C)cc(OCCO)n2)COC1
a: 9.52

q: Note, next up: Cc1ccc(NC(=O)c2ccc(CN)c(C(F)(F)F)c2)cc1-c1cccc(C2COC2)c1
a: 8.70

q: Note, next up: Cc1ccc(NC(=O)c2cc(C(F)(F)F)c[nH]c2=O)cc1-c1cc(OCCO)nc(C2CCOCC2)c1
a: 8.40

q: Note, next up: Cc1ncc(NC(=O)c2cccc(C(F)(F)F)c2)cc1-c1cc(C2(F)COC2)c(=O)n(CCO)c1
a: 7.29

q: Note, next up: COCCOc1nnc(-c2cc(NC(=O)c3ccnc(C(F)(F)F)c3)ccc2C)cc1C1CCOCC1
a: 10.00

q: Note, next up: Cc1ccc(NC(=O)c2ccnc(C(C)(F)F)c2)cc1-c1cnc(-c2cn(C)nc2C)c(C2(O)COC2)c1
a: 8.70

q: Note, next up: COc1ncc(-c2cc(NC(=O)c3ccnc(C(F)(F)F)c3)ccc2C)cc1C1(O)COC1
a: 9.45

q: Note, next up: CCOc1ncc(-c2cc(NC(=O)c3ccnc(C(C)(C)F)c3)cnc2C)cc1C1(CF)CCOC1 (stereo not drawn)
a: 9.00

q: Note, next up: COc1ncc(-c2cc(C(=O)Nc3cccc(C(F)F)c3)ccc2C)cc1C1(O)COC1
a: 9.22

q: Note, next up: Cc1ccc(NC(=O)c2cc(Cl)ccn2)cc1-c1cc(OCCO)nc(C2CCOCC2)c1
a: 10.52

q: Note, next up: Cc1nc2cc(C3CCOCC3)cc(-c3cc(NC(=O)c4ccnc(C(C)(C)C#N)c4)ccc3C)c2[nH]1
a: 9.22

q: Note, next up: Cc1ccc(NC(=O)c2ccnc(C(F)(F)F)c2)cc1-c1cc(OCCO)nc(C2(CF)CCOCC2)c1
a: 9.52

q: Note, next up: Cc1ccc(NC(=O)c2cnnc(C(F)(F)F)c2)cc1-c1cc(OCCO)nc(C2CCOCC2)c1
a: 10.70

q: Note, next up: Cc1ccc(NC(=O)c2cc(C(F)(F)F)ccn2)cc1-c1cc2c(c(C3CCOCC3)c1)NC(=O)C(C)(CO)O2 (stereo not drawn) [Example 192]
a: 9.52

q: Note, next up: COc1ncc(-c2cc(NC(=O)c3ccnc(C(F)(F)F)c3)cnc2C)cc1C1(C#N)COC1
a: 8.98

q: Note, next up: Cc1ccc(NC(=O)c2cc(C(F)(F)F)c(Cl)cn2)cc1-c1cc(OC[C@H](O)CO)nc(C2CCOCC2)c1
a: 9.52

q: Note, next up: Cc1nc2cc(C3CCOCC3)cc(-c3cc(NC(=O)c4cc(C(F)(F)F)ccn4)ccc3C)c2[nH]1
a: 8.30

q: Note, next up: Cc1ncc(NC(=O)c2cccc(C(F)(F)F)c2)cc1-c1cnc(OCCO)c(C2(O)COC2)c1
a: 8.74

q: Note, next up: CCOc1ncc(-c2cc(NC(=O)c3ccnc(C(C)(C)F)c3)cnc2C)cc1C1(C)COC1
a: 9.30

q: Note, next up: COc1ncc(-c2cc(NC(=O)c3ccnc(C(C)(F)F)c3)cnc2C)cc1C1(O)COC1
a: 8.45

q: Note, next up: Cc1ccc(NC(=O)c2cnnc(C(F)(F)F)c2)cc1-c1cc(OCCO)nc(C2(CO)CCOCC2)c1
a: 9.52

q: Note, next up: CCOc1ncc(-c2cc(NC(=O)c3ccnc(C(F)(F)F)c3)ccc2C)cc1C1(C#N)CCOC1 (stereo not drawn)
a: 9.52

q: Note, next up: Cc1ccc(NC(=O)c2ccnc(C(F)(F)F)c2)cc1-c1cc(C2CCOCC2)c(N[C@H](C)CO)nn1
a: 10.40

q: Note, next up: Cc1ccc(NC(=O)c2cccc(C(F)(F)F)c2)cc1-c1cnc(OC2CCOCC2)c(C2(O)COC2)c1
a: 9.75

q: Note, next up: Cc1ccc(NC(=O)c2ccnc(C(C)(C)C#N)c2)cc1-c1cc(C2(O)COC2)cc(C2(F)COC2)c1
a: 8.66

q: Note, next up: Cc1ncc(NC(=O)c2ccnc(C(C)(F)F)c2)cc1-c1cnc(OCCO)c(C2(F)COC2)c1
a: 8.93

q: Note, next up: Cc1ccc(NC(=O)c2ccnc(C(F)(F)F)c2)cc1-c1cc(C2CCOCC2)c(NC[C@@H](C)O)nn1
a: 10.00

###

Target: C-Raf FL (Homo sapiens (Human), UniProt P04049, Y340E/Y341E)
Experiment: In vitro Raf activity determination (Alpha Screen, phospho-MEK), C-Raf FL (full length, Y340E/Y341E)
Conditions: ATP 1 μM; 60 min pre-incubation; 1 hour reaction; column head does not say FL or TR
measure: IC50 (nM)
Field format: number, assumed nM, no unit text.

q: Name the recorded IC50 for COc1ncc(-c2cc(NC(=O)c3cc(C(C)(C)F)ccn3)cnc2C)cc1C1(O)COC1 [Example 94] .
a: 4.24

q: Note, next up: Cc1ncc(NC(=O)c2ccc(CN)c(C(F)(F)F)c2)cc1-c1cccc(C2(C)COC2)c1 [Example 8]
a: 1

q: Note, next up: Cc1ncc(NC(=O)c2ccnc(C(C)(C)F)c2)cc1-c1cccc(C2COC2)c1 [Example 1]
a: 1

q: Note, next up: Cc1ccc(NC(=O)c2ccnc(C(C)(F)F)c2)cc1-c1cc(OCCO)nc(C2CCOCC2)c1 [Example 269]
a: 0.03

q: Note, next up: Cc1ccc(NC(=O)c2ccnc(C(C)(C)F)c2)cc1-c1cnc(OCCO)c(C2(F)COC2)c1 [Example 41]
a: 0.245

q: Note, next up: CCOc1nnc(-c2cc(NC(=O)c3ccnc(C#N)c3)ccc2C)cc1C1CCOCC1 [Example 229]
a: 0.7

q: Note, next up: Cc1ccc(NC(=O)c2ccnc(C(F)F)c2)cc1-c1cc(OCCO)nc(C2(F)COC2)c1 [Example 53]
a: 0.624

q: Note, next up: COc1ncc(-c2cc(NC(=O)c3cc(C(C)(C)O)ccn3)ccc2C)cc1C1(F)COC1 [Example 96]
a: 0.482

q: Note, next up: Cc1ccc(NC(=O)c2ccnc(Cl)c2)cc1-c1cc(OC[C@H](O)CO)nc(C2CCOCC2)c1 [Example 280]
a: 0.07

q: Note, next up: Cc1ncc(NC(=O)c2cccc(C(F)(F)F)c2)cc1-c1cc(OCCO)nc(C2(F)COC2)c1 [Example 52]
a: 2.15

q: Note, next up: Cc1ccc(NC(=O)c2cc(C(F)(F)F)ccn2)cc1-c1cc(OC[C@@H](O)CO)nc(C2CCOCC2)c1 [Example 284]
a: 0.2

q: Note, next up: COC1(c2cc(-c3cc(NC(=O)c4ccnc(C(F)(F)F)c4)ccc3C)cnc2OCCO)COC1 [Example 59]
a: 0.103

q: Note, next up: COC1(c2cc(-c3cc(NC(=O)c4cccc(C(F)(F)F)c4)cnc3C)cc(OCCO)n2)COC1 [Example 160]
a: 0.7

q: Note, next up: COc1ncc(-c2cc(NC(=O)c3cc(C(C)(C)N)cc(C(F)(F)F)c3)ccc2C)cc1C1(C(F)F)COC1 [Example 112]
a: 0.225

q: Note, next up: Cc1ccc(NC(=O)c2ccnc(C(F)(F)F)c2)cc1-c1cc2c(c(C3CCOCC3)c1)OC(C)(CO)C(=O)N2 (stereo not shown) [Example 200]
a: 0.5

q: Note, next up: CCOc1ncc(-c2cc(NC(=O)c3ccnc(C(C)(C)C#N)c3)cnc2C)cc1C1(C)COC1 [Example 64]
a: 1.18

q: Note, next up: Cc1ccc(NC(=O)c2ccnc(C(C)(C)C#N)c2)cc1-c1cc(OCCO)nc(C2(C)CCOCC2)c1 [Example 208]
a: 0.5

q: Note, next up: CCOc1ncc(-c2cc(NC(=O)c3ccnc(C(C)(C)F)c3)cnc2C)cc1C1(C#N)CCOC1 (stereo not shown) [Example 170]
a: 2

q: Note, next up: Cc1ccc(NC(=O)c2ccnc(C(C)(C)C#N)c2)cc1-c1cccc(C2(C)COC2)c1 [Example 27]
a: 263

q: Note, next up: Cc1ccc(NC(=O)c2cnnc(C(F)(F)F)c2)cc1-c1cc2c(c(C3CCOCC3)c1)OC(C)(CO)C(=O)N2 (stereo not shown) [Example 201]
a: 0.1

q: Note, next up: COc1ncc(-c2cc(NC(=O)c3ccnc(C(F)F)c3)ccc2C)cc1C1(O)COC1 [Example 98]
a: 1.11

q: Note, next up: COC1(c2cc(-c3cc(NC(=O)c4cccc(C(F)(F)F)c4)ccc3C)cc(NCCO)n2)COC1 [Example 153]
a: 0.04

q: Note, next up: Cc1ccc(NC(=O)c2ccnc(C(F)(F)F)c2)cc1-c1cc(C2CCOCC2)c(OC2CCOCC2)nn1 [Example 313]
a: 0.07

q: Note, next up: CCOc1nnc(-c2cc(NC(=O)c3cnc(C(F)(F)F)cn3)ccc2C)cc1C1CCOCC1 [Example 230]
a: 11

q: Note, next up: CCOc1ncc(-c2cc(NC(=O)c3ccnc(C(C)(C)C#N)c3)cnc2C)cc1C1CCOCC1 [Example 164]
a: 0.4

q: Note, next up: Cc1ccc(NC(=O)c2cccc(C(F)(F)F)c2)cc1-c1cccc(C2COC2)c1 [Example 2]
a: 0.7

q: Note, next up: CCOc1ncc(-c2cc(NC(=O)c3ccnc(C(C)(C)C#N)c3)ccc2C)cc1C1(O)CCOC1 (stereo not shown) [Example 293]
a: 2

q: Note, next up: Cc1ccc(NC(=O)c2ccnc(C(C)(C)C#N)c2)cc1-c1cc(C2CCOCC2)nc(N(CCO)CCO)c1 [Example 179]
a: 0.795

q: Note, next up: Cc1ccc(NC(=O)NCCC(C)(C)C)cc1-c1cc(OCCO)nc(C2CCOCC2)c1 [Example 319]
a: 0.1

q: Note, next up: Cc1ccc(NC(=O)c2ccnc(C(C)(C)C#N)c2)cc1-c1cccc(C2COC2)c1 [Example 28]
a: 25000

q: Note, next up: COc1ncc(-c2cc(C(=O)Nc3cccc(C(C)(C)C#N)c3)ccc2C)cc1C1(O)COC1 [Example 146]
a: 0.801
